Below, each of the compounds is paired with its reported EC50 value.
- Tested on: Human immunodeficiency virus 1
- METHOD: Antiviral activity against T-cell line-tropic HIV1 NL4-3 infected in human MT4 cells assessed as inhibition of virus-induced cytopathogenicity after 5 days by MTT assay
- Format: functional, organism-based
- CONDITION DESCRIPTION: Human immunodeficiency virus 1, NL4-3, MT4, 120 h
Residues, ends and D or L forms follow the SMILES beside them. *: point of attachment. Cam = NC(=O)C*

# COMPOUND, OBSERVED MEASUREMENT
records = [
    ("CC[C@H](C)[C@H](NC(=O)[C@H](CCCNC(=N)N)NC(=O)[C@H](CCC(N)=O)NC(=O)[C@H](Cc1cnc[nH]1)NC(=O)[C@@H](NC(=O)[C@H](CO)NC(=O)[C@H](Cc1ccc(O)cc1)NC(=O)[C@H](CC(C)C)NC(=O)[C@@H](NC(=O)[C@H](C)NC(=O)[C@@H](NC(=O)[C@@H](NC(C)=O)[C@@H](C)O)[C@@H](C)CC)C(C)C)C(C)C)C(=O)N[C@@H](CC(=O)O)C(=O)N[C@H](C(=O)N[C@@H](CCCCN)C(=O)NCC(=O)N[C@@H](CSCC(N)=O)C(N)=O)C(C)C (Ac-TIAVLYSVHQRIDVKGC(Cam)-NH2)", "> 50000 nM"),
]

Task: # lookup: EC50 of c1cc(CN2CCCNCCNCCCNCC2)ccc1CN1CCCNCCNCCCNCC1 [PLERIXAFOR]
Result: 32 nM

Task: # lookup: EC50 of COC[C@@H](c1ccc(C(F)(F)F)cc1)N1CCN(C2(C)CCN(C(=O)c3c(C)ncnc3C)CC2)C[C@@H]1C [VICRIVIROC]
Result: > 5000 nM

Task: # lookup: EC50 of Cc1cn([C@H]2C[C@H](N=[N+]=[N-])[C@@H](CO)O2)c(=O)[nH]c1=O [ZIDOVUDINE]
Result: 120 nM

----------
- METHOD: Cytotoxicity against human PM1 cells expressing CCR5 by MTT assay in presence of 5 uM of chloroquine
- Format: cell-based
Residues, ends and D or L forms follow the SMILES beside them. *: point of attachment. Cam = NC(=O)C*
OBSERVATION TYPE: CC50

# COMPOUND, CC50
measured = [
    ("c1cc(CN2CCCNCCNCCCNCC2)ccc1CN1CCCNCCNCCCNCC1 [PLERIXAFOR]", "> 50 µM"),
    ("COC[C@@H](c1ccc(C(F)(F)F)cc1)N1CCN(C2(C)CCN(C(=O)c3c(C)ncnc3C)CC2)C[C@@H]1C [VICRIVIROC]", "> 5 µM"),
    ("Cc1cn([C@H]2C[C@H](N=[N+]=[N-])[C@@H](CO)O2)c(=O)[nH]c1=O [ZIDOVUDINE]", "> 100 µM"),
]

Task: # lookup: CC50 of CC[C@H](C)[C@H](NC(=O)[C@H](CCCNC(=N)N)NC(=O)[C@H](CCC(N)=O)NC(=O)[C@H](Cc1cnc[nH]1)NC(=O)[C@@H](NC(=O)[C@H](CO)NC(=O)[C@H](Cc1ccc(O)cc1)NC(=O)[C@H](CC(C)C)NC(=O)[C@@H](NC(=O)[C@H](C)NC(=O)[C@@H](NC(=O)[C@@H](NC(C)=O)[C@@H](C)O)[C@@H](C)CC)C(C)C)C(C)C)C(=O)N[C@@H](CC(=O)O)C(=O)N[C@H](C(=O)N[C@@H](CCCCN)C(=O)NCC(=O)N[C@@H](CSCC(N)=O)C(N)=O)C(C)C (Ac-TIAVLYSVHQRIDVKGC(Cam)-NH2)
Result: > 50 µM
